- Test system: Mus musculus
- assayDetails: Toxicity in ip dosed C3H X DBA2 F1 hybrid mouse […] with mouse L1210 cells on day 0 and dosed once daily on days 1 to 5 measured after 50 days
- Assay type: organism-based
- conditions: in vivo, 1200 h
Label True for high-side LD10 (at or above 30 mg/kg) and False for low-side LD10 (below it).

Determine whether measured LD10 meets or exceeds 30 mg/kg for `Cc1cc(C(=O)Nc2ccc(C(=O)Nc3ccc[n+](C)c3)cc2)ccc1C(=O)Nc1ccc(C(=O)Nc2ccc[n+](C)c2)cc1.Cc1ccc(S(=O)(=O)[O-])cc1.Cc1ccc(S(=O)(=O)[O-])cc1`
False

Determine whether measured LD10 meets or exceeds 30 mg/kg for `CCC[n+]1cccc(NC(=O)c2ccc(NC(=O)c3ccc(C(=O)Nc4ccc(C(=O)Nc5ccc[n+](CCC)c5)cc4)cc3)cc2)c1.Cc1ccc(S(=O)(=O)[O-])cc1.Cc1ccc(S(=O)(=O)[O-])cc1`
False

Determine whether measured LD10 meets or exceeds 30 mg/kg for `CCC[n+]1cccc(NC(=O)c2ccc(NC(=O)c3ccc(C(=O)Nc4ccc(C(=O)Nc5ccc[n+](CCC)c5)cc4)c(N)c3)cc2)c1.Cc1ccc(S(=O)(=O)[O-])cc1.Cc1ccc(S(=O)(=O)[O-])cc1`
True

Determine whether measured LD10 meets or exceeds 30 mg/kg for `CC[n+]1cccc(-c2ccc(NC(=O)/C=C/c3ccc(C(=O)Nc4ccc(-c5ccc(-c6ccc(-c7ccc[n+](CC)c7)cc6)cc5)cc4)cc3)cc2)c1.Cc1ccc(S(=O)(=O)[O-])cc1.Cc1ccc(S(=O)(=O)[O-])cc1`
True

Determine whether measured LD10 meets or exceeds 30 mg/kg for `CCC[n+]1cccc(NC(=O)c2ccc(NC(=O)c3ccc(C(=O)Nc4ccc(C(=O)Nc5ccc[n+](CCC)c5)cc4)c(OC)c3)cc2)c1.Cc1ccc(S(=O)(=O)[O-])cc1.Cc1ccc(S(=O)(=O)[O-])cc1`
False
